# System: HCT116 (MTAP del) cell line
# Protocol Notes: Cell proliferation inhibition in MTAP-deficient cancer cells, WST-1 assay
# Format: cell-based
# Experimental Conditions: Homo sapiens, HCT-116, 120 hours of drug treatment, maximum concentration 10 µM, read-out: HCT116 MTAP^-/- (IC50, cell proliferation inhibited by 50%)
pIC50: −log10 of the molar value.
Readout Name: pIC50

Below: 5 compounds and their reported pIC50.
CC(C)c1ccccc1-n1c(=O)c2nccn2c2ccc(Cl)cc21 : 5.00 to 6.00
CCc1ncccc1-n1c(=O)c2nccn2c2cc(Cl)c(C(F)(F)F)cc21 : < 5.00
Cc1cn2c(n1)c(=O)n(-c1cccnc1C)c1cc(C(F)(F)F)ccc12 : 7.00 to 9.00
CC(=O)c1nc2c(=O)n(-c3cccnc3C)c3cc(C(F)(F)F)ccc3n2c1O : < 5.00
Cc1ncccc1-n1c(=O)c2ncc(C)n2c2cc(Cl)c(C(F)(F)F)cc21 : 7.00 to 9.00

Please look up its pIC50: O=c1c2nccn2c2ccc(Cl)cc2n1-c1ccccc1 5.00 to 6.00

Please look up its pIC50: Cc1cc2c(cc1Br)n(-c1cccnc1C)c(=O)c1ncc(C)n12 7.00 to 9.00
